Cited source for all entries: patent US7109338B2

Items are presented alongside their recorded Anti-Rhinovirus activity, Clinical isolated strain.
# Tested on: clinical isolate (89229T)
# RUN DESCRIPTION: microbe, parasite or virus in culture
# Format: cell-based, human rhinovirus
# Design: unit not given here
# RUN PARAMETERS: Clinical isolated strain
Please reply with the value in numeric form only.

In [3]: df
Out[3]:
                                   compound  measurement
0  CCn1c2c(c(=O)c3c(C(C)C)c(OC)ccc31)Cc1ccccc1-2         0.50
1  CCn1c2c(c(=O)c3cc(CC(C)C)ccc31)Cc1cc(OC)ccc1-2 [Compound B12]         0.46
2  CCc1ccc2c(c1)Cc1c-2n(CC)c2ccc(C(C)C)cc2c1=O         0.31
3  CCn1c2c(c(=O)c3cc(C(C)C)ccc31)Cc1cc(OC)c(OC)cc1-2         0.43
4  CCn1c2c(c(=O)c3cc(C(C)C)ccc31)Cc1ccccc1-2.Cl          1.9

# input compound: CCn1c2c(c(=O)c3cc(CC(C)C)ccc31)Cc1cc(OC)ccc1-2 [Compound B15] ; wanted: its Anti-Rhinovirus activity, Clinical isolated strain 1.1

Next compound: `CCn1c2c(c(=O)c3cc(C(C)C)ccc31)Cc1cc(OC)c(C)cc1-2` 0.49

Next compound: `CCn1c2c(c(=O)c3cc(C(C)C)ccc31)Cc1cc(OC)ccc1-2` 0.75

* * *

# Test system: HRV61 (6669-CV39)
# RUN DESCRIPTION: Anti-rhinovirus spectrum (MTT), HRV61
# Type: cell-based, human rhinovirus
# Design: unit not given here
# RUN PARAMETERS: HRV61
MEASURE NAME: Anti-Rhinovirus activity, HRV61
Please reply with the value in numeric form only.

Solved cases (4 shown):
In [3]: df
Out[3]:
                                   compound   target_or_system                     measure_name  measurement
0  CCn1c2c(c(=O)c3cc(C(C)C)ccc31)Cc1cc(OC)ccc1-2 [Compound B10]  HRV61 (6669-CV39)  Anti-Rhinovirus activity, HRV61         0.24
1  CCn1c2c(c(=O)c3cc(C(C)C)ccc31)Cc1cc(OC)c(OC)cc1-2 [Compound B22]  HRV61 (6669-CV39)  Anti-Rhinovirus activity, HRV61         0.34
2  CCn1c2c(c(=O)c3cc(C(C)C)ccc31)Cc1ccccc1-2.Cl [Compound B3]  HRV61 (6669-CV39)  Anti-Rhinovirus activity, HRV61         0.80
3  CCn1c2c(c(=O)c3c(C(C)C)c(OC)ccc31)Cc1ccccc1-2 [Compound B7]  HRV61 (6669-CV39)  Anti-Rhinovirus activity, HRV61         0.28

# input compound: CCn1c2c(c(=O)c3cc(CC(C)C)ccc31)Cc1cc(OC)ccc1-2 [Compound B12] ; wanted: its Anti-Rhinovirus activity, HRV61 0.31

Next compound: CCn1c2c(c(=O)c3cc(CC(C)C)ccc31)Cc1cc(OC)ccc1-2 [Compound B15] 0.39

Next compound: CCn1c2c(c(=O)c3cc(C(C)C)ccc31)Cc1cc(OC)c(C)cc1-2 [Compound B20] 0.31

Next compound: CCc1ccc2c(c1)Cc1c-2n(CC)c2ccc(C(C)C)cc2c1=O [Compound B9] 0.16

* * *

Items are presented alongside their recorded IC50 CB4.
# Test system: coxsackievirus type B4 (CB4,JVB)
# RUN DESCRIPTION: In vitro anti-picornavirus activity (MTT), CB4
# Assay type: cell-based
# RUN PARAMETERS: HeLa cells, MTT method, 37° C.
Kindly answer with a numeric value in µg/mL, unit omitted.

Solved cases (2 shown):
>>> print(df.to_string())
                      smiles_representation   unit  measurement
0  CCn1c(-c2ccccc2)c(C)c(=O)c2cc(N3CCOCC3)ccc21  µg/mL           18
1  CCn1c2c(c(=O)c3cc(C(C)C)ccc31)Cc1cc(OC)c(OC)cc1-2  µg/mL          1.3

# input compound: `Cc1c(OCC(C)C)ccc2c1c(=O)cc(-c1ccccc1)n2C` ; wanted: its IC50 CB4 1.2

Next compound: `Cc1c(-c2ccccc2)n(C)c2ccc(NCC(C)C)cc2c1=O` 4.9

Next compound: `CCn1c(-c2cccc(F)c2)c(C)c(=O)c2cc(C(C)C)ccc21` 2.8

Next compound: `CCn1c2c(c(=O)c3cc(C(C)C)ccc31)Cc1cc(OC)ccc1-2` 0.57

Next compound: `CCOc1ccc(-c2cc(=O)c3cc(C(C)C)ccc3n2C)cc1C` 1.1

* * *

# Tested on: echovirus type 11 (Echo 11, Gregory)
# RUN DESCRIPTION: In vitro anti-picornavirus activity (MTT), Echo 11
# Type: cell-based
# RUN PARAMETERS: HeLa-S3 cells, MTT method, 37° C.
MEASURE NAME: IC50 Echo 11 (µg/mL)
Kindly answer with a numeric value in µg/mL, unit omitted.

Solved cases (5 shown):
In [3]: df
Out[3]:
                                   compound                      target_or_system   unit  measurement
0  CC(C)c1ccc2c(c1)c(=O)cc(-c1ccco1)n2C [Compound A303]  echovirus type 11 (Echo 11, Gregory)  µg/mL         0.83
1  CCCOc1ccc2c(c1)c(=O)c(C)c(-c1ccccc1)n2CC [Compound A32]  echovirus type 11 (Echo 11, Gregory)  µg/mL         0.40
2  CCn1c(-c2ccccc2)c(C)c(=O)c2cc(NCC(C)C)ccc21.O [Compound A159]  echovirus type 11 (Echo 11, Gregory)  µg/mL         0.26
3  CCn1c(-c2ccc(C)s2)cc(=O)c2cc(C(C)C)ccc21 [Compound A315]  echovirus type 11 (Echo 11, Gregory)  µg/mL         0.30
4  CCn1c(-c2ccccc2)c(C)c(=O)c2cc(N3CCOCC3)ccc21 [Compound A169]  echovirus type 11 (Echo 11, Gregory)  µg/mL          1.1

Alright, here's another compound for you.
# input compound: CCn1c(-c2ccccn2)cc(=O)c2cc(C(C)C)ccc21 [Compound A296] ; wanted: its IC50 Echo 11 1.7

* * *

# Test system: human rhinovirus type 1B (HRV 1B, B632)
# RUN DESCRIPTION: Anti-rhinovirus activity (MTT), HRV1B
# Format: cell-based
# RUN PARAMETERS: Human rhinovirus sp., HRV1B; HeLa (Ohio strain) cells, MTT method, 33° C.; read-out: IC50 HRV1B
Items are presented alongside their recorded IC50.
Kindly answer with a numeric value in µg/mL, unit omitted.

Solved cases (2 shown):
>>> df
                                   compound  measure_name  measurement
0  CCn1c2c(c(=O)c3cc(C(C)C)ccc31)Cc1c-2ccn1C [Compound D53]          IC50          1.6
1  Cc1c(-c2ccccc2)n(-c2ccc(Cl)cc2)c2ccc(C(C)C)cc2c1=O [Compound A324]          IC50         0.53

Alright, here's another compound for you.
# input compound: CCn1c2c(c(=O)c3cc(C(C)C)ccc31)Cc1cc(C)sc1-2 [Compound D51] ; wanted: its IC50 0.59

* * *

# Test system: echovirus type 11 (Echo 11, Gregory)
# RUN DESCRIPTION: In vitro anti-picornavirus activity (MTT), Echo 11
# Type: cell-based
# RUN PARAMETERS: HeLa-S3 cells, MTT method, 37° C.
MEASURE NAME: IC50 Echo 11 (µg/mL)
Kindly answer with a numeric value in µg/mL, unit omitted.

In [3]: df
Out[3]:
                                   molecule  measure_name   unit  measurement
0  COc1ccc(-c2cc(=O)c3cc(C(C)C)ccc3n2C)cc1C [Compound A97]  IC50 Echo 11  µg/mL          0.3

# input molecule: CCOc1ccc(-c2cc(=O)c3cc(C(C)C)ccc3n2C)cc1C [Compound A99] ; wanted: its IC50 Echo 11 0.20

Next molecule: COc1c(OCC(C)C)ccc2c1c(=O)c(C)c(-c1ccccc1)n2C [Compound A196] 0.44

Next molecule: COc1ccc(-c2c(C)c(=O)c3cc(OCC(C)C)c(C)cc3n2C)cc1C [Compound A237] 0.40

Next molecule: CCn1c(-c2ccccc2)c(C)c(=O)c2cc(NCC(C)C)ccc21.Cl [Compound A160] 0.27

Next molecule: CC(C)c1ccc2c(c1)c(=O)cc(-c1ccc(Br)s1)n2C [Compound A316] 0.39

Next molecule: CCn1c(-c2ccccc2)c(C)c(=O)c2cc(OCC(C)C)c(C)cc21 [Compound A235] 0.27

Next molecule: COc1ccc(-c2c(C)c(=O)c3c(C)c(OCC(C)C)ccc3n2C)cc1C [Compound A190] 0.23

Next molecule: CCn1c2c(c(=O)c3cc(C(C)C)ccc31)C(=NOC)c1ccccc1-2 [Compound C49] 0.26
